Provenance of the data: patent US20180094053A1

Recorded pSTAT5a,b fold EC50 shift, Human Primary NK cells (huRβγ), one value per entry.
biological target: Recombinant human IL-2 (human, UniProt P60568 21-153); assay: cell-based or functional assay
Parameter measured: pSTAT5a,b fold EC50 shift, Human Primary NK cells (huRβγ)

Binder	Experimental result
XPA.92.019 (antibody, V domains shown, Tested as purified full-length human IgG; also called mAb19) VH: EVQLVESGGGLVQPGRSLRLSCAASGFTFSYYGMHWVRQAPGKGLEWVADISNDGSNKYYADSVKGRFTISRDNSKTTLYLQMNSLRPEDTAVYYCATPYYDSSGLDYWGQGTLVTVSS VL: SYELTQPPSVSVSPGQTARITCSGDALPKRFAYWYQQKAGQAPVLVIYEDNKRPSGIPETLSGSSSGTTATLTISGAQEEDEADYYCYSTDNTGGLWVFGGGTKLTVLG	40 fold
XPA.92.099 (antibody, V domains shown, Tested as purified full-length human IgG; also called mAb99; clone 99) VH: QVQLVESGGGLVKPGRSLRLSCAASGFTFNRYAMSWVRQAPGKGLEWVAMISFDGGNQYYTDSVSGRFTISRDNSKTTLFLQMDSLRTEDTAVYYCVRSPAGDWVAYFDYWGQGTLVTVSS VL: DIQMTQSPSSLSASIGDRVTIPCQASEDISNHLSWYQQKPGKAPKPLIFDASDLETGVPSRFSGSGSGTDFALTISSLRPDDFATYYCHQYHDYPSYTFGHGTKLEIKR	24 fold
XPA.92.042 (antibody, V domains shown, Tested as purified full-length human IgG) VH: EVQLVQSGTEVKKAGDSLKISCKGSGYNFDTYWIGWVRQMPGRGLEWMGTIYPADSDTRYSPSFQGQVTMSADKSISTAYLQWGSLRASDTAMYYCARFSSSAYDIWGQGTMVTVSS VL: SYELTQPPSVSVSPGQTARITCSGDALPRKFAYWYQQKSGQAPVLVIYQDTKRPSGIPERFSGSSSGTTVTLTISDVQAEDDADYYCQSADRSDSYVFGAGTKLTVLG	41 fold
